Target: T1, human BCMA-Fc (human)
T1 chain: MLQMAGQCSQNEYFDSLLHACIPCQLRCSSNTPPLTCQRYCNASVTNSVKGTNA
Assay: SPR, 25C
Endpoint Label: pKd
Lab note — pKd values are minus log10 of concentrations in M.

Example binders with recorded pKd:
1) P1AG5028 (54_VH2a/VL1a) (antibody, V domains shown) VH: EVQLLESGGGLVQPGGSLRLSCAASGFTFSNAWMDWVRQAPGKGLEWVSQITAKSNNYATYYADSVKGRFTISRDNSKNTLYLQMNSLRAEDTAVYYCTDDGYHWGQGTLVTVSS VL: AIQMTQSPSSLSASVGDRVTITCRASEDIRNGLAWYQQKPGKAPKLLIYNANSLHTGVPSRFSGSGSGTDFTLTISSLQPEDFATYYCEDTSKYPYTFGQGTKLEIK; 8.57
2) P1AG5078 (E04_VH1b/VL1d) (antibody, V domains shown) VH: QVQLVQSGAEVKKPGASVKVSCKASGYTFTNYWMHWVRQAPGQGLEWMGIIHPNSGSTNYNEKFQGRVTMTVDKSTSTVYMELSSLRSEDTAVYYCARGIYDYPFAYWGQGTLVTVSS VL: DIQMTQSPSSLSASVGDRVTITCRASESVSIHGTHLMHWYQQKPGKAPKLLIYAASNLQSGVPSRFSGSGSETDFTLTISSLQPEDFATYYCQQSIEDPYTFGGGTKVEIK; 8.62
3) P1AG5036 (E04_VH1a/VL1f) (antibody, V domains shown) VH: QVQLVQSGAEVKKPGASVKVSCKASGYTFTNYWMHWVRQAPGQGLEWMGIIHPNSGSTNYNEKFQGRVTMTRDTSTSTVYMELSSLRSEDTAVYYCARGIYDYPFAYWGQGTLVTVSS VL: DIQMTQSPSSLSASVGDRVTITCRASESVSIHGTHLMHWYQQKPGKAPKLLIYAASSLQSGVPSRFSGSGSETDFTLTISSLQPEDFATYYCQQSIEDPYTFGGGTKVEIK; 8.54

// moving on: another record for pKd
Query block: # get_value(readout='pKd', item= P1AG5064 (54_VH1b/VL1a_N651A_N695S) (antibody, V domains shown) VH: EVQLVESGGGLVKPGGSLRLSCAASGFTFSNAWMDWVRQAPGKGLEWIAQITAKSNNYATYYAAPVKGRFTISRDDSKNTLYLQMNSLKTEDTAVYYCTDDGYHWGQGTLVTVSS VL: AIQMTQSPSSLSASVGDRVTITCRASEDIRNGLAWYQQKPGKAPKLLIYAASSLHTGVPSRFSGSGSGTDFTLTISSLQPEDFATYYCEDTSKYPYTFGQGTKLEIK )
Result block: 8.46
